system: S. dysgalactiae ATCC-6644; experiment: MIC, broth microdilution, S. dysgalactiae ATCC-6644; assay type: cell-based; design: unit not given beside the values; settings: S. dysgalactiae ATCC-6644, Gram +ve; pH 3; 18 to 24 hours
MEASURED_PROPERTY: MIC

[[record]]
compound_string = "CCCCOP(=O)(O)OC[C@H]1O[C@@H](n2ccc(N(C)C)nc2=O)C(F)(F)[C@@H]1O"
target_entity = "S. dysgalactiae ATCC-6644"
measured_property = "MIC"
reported_measurement = 0.78

[[record]]
compound_string = "CCCCOP(=O)(O)OC[C@H]1O[C@@H](n2ccc(N(C)C)nc2=O)[C@H](OC)[C@@H]1O"
target_entity = "S. dysgalactiae ATCC-6644"
measured_property = "MIC"
reported_measurement = 0.78

[[record]]
compound_string = "CCCCOP(=O)(O)OC[C@H]1O[C@@H](n2ccc(N(C)C)nc2=O)C[C@@H]1O"
target_entity = "S. dysgalactiae ATCC-6644"
measured_property = "MIC"
reported_measurement = 3.12

[[record]]
compound_string = "CCCCOP(=O)(O)OC[C@H]1O[C@@H](n2ccc(N)nc2=O)C(F)(F)[C@@H]1O"
target_entity = "S. dysgalactiae ATCC-6644"
measured_property = "MIC"
reported_measurement = 0.05

[[record]]
compound_string = "CCCCOP(=O)(O)OC[C@@H]1CC[C@H](n2ccc(N)nc2=O)O1"
target_entity = "S. dysgalactiae ATCC-6644"
measured_property = "MIC"
reported_measurement = 12.50


###

Recorded MIC values for a group of compounds are listed next.
Test system: E. coli MMX-8870
Test: MIC, broth microdilution, E. coli MMX-8870
Format: cell-based
Conditions: E. coli MMX-8870, Gram −ve; pH 3; 18 to 24 hours
Method: MIC testing is conducted using the broth (Mueller Hinton Broth) microdilution procedures relevant to each organism group as established by the Clinical and Laboratory Standards Institute (CLSI; 3-7). MIC plates are prepared in accordance with CLSI (3-7). To prepare the test plates, automated liquid handlers are used to conduct serial dilutions and liquid transfers. […]
MEASURED_PROPERTY: MIC

[[record]]
compound_string = "CCCCOP(=O)(O)OC[C@H]1O[C@@H](n2ccc(N(C)C)nc2=O)C[C@@H]1O"
target_entity = "E. coli MMX-8870"
measured_property = "MIC"
reported_measurement = 12.50

[[record]]
compound_string = "CCCCOP(=O)(O)OC[C@H]1O[C@@H](n2ccc(N(C)C)nc2=O)[C@H](OC)[C@@H]1O"
target_entity = "E. coli MMX-8870"
measured_property = "MIC"
reported_measurement = 1.56

[[record]]
compound_string = "CCCCOP(=O)(O)OC[C@H]1O[C@@H](n2ccc(N(C)C)nc2=O)C(F)(F)[C@@H]1O"
target_entity = "E. coli MMX-8870"
measured_property = "MIC"
reported_measurement = 0.78

[[record]]
compound_string = "CCCCOP(=O)(O)OC[C@H]1O[C@@H](n2ccc(N)nc2=O)C(F)(F)[C@@H]1O"
target_entity = "E. coli MMX-8870"
measured_property = "MIC"
reported_measurement = 0.78

[[record]]
compound_string = "CCCCOP(=O)(O)OC[C@@H]1CC[C@H](n2ccc(N)nc2=O)O1"
target_entity = "E. coli MMX-8870"
measured_property = "MIC"
reported_measurement = 12.50

